C. neoformans ATCC 66031: recorded MIC for assorted compounds
observation.type: MIC (µg/mL)

For orientation, consider the following solved cases.
# compound, MIC [µg/mL]
records = [
    ("OC(Cn1cncn1)(Cn1cncn1)c1ccc(F)cc1F [FLC, reference compound]", 2.4),
    ("OCCCCCCCCCCCBr [11-Bromoundecanol, reference compound]", 12),
    ("Fc1ccc(C(S)(Cn2cncn2)Cn2cncn2)c(F)c1 [SH]", 339),
    ("CCCCCCCCCCC(Br)C(=O)O (centres unmarked) [2-Bromolauric acid, reference compound]", 19),
    ("Cc1ccc(S(=O)(=O)C(Cn2cncn2)(Cn2cncn2)c2ccc(F)cc2F)cc1 [Tosyl]", 46),
]

[A] CCCCCCCCCCCCCCO [Tetradecanol, reference compound]
[B] CS(=O)(=O)C(Cn1cncn1)(Cn1cncn1)c1ccc(F)cc1F [Mesyl]
[C] CC(Br)C(=O)Cl (centres unmarked) [2-Bromopropionyl chloride, reference compound]
[D] CCCCCCC(Br)C(=O)O (centres unmarked) [2-Bromooctanoic acid, reference compound]
[E] CCCCCCCCCCCO [Compound 1-Undecanol, 1-Undecanol, reference compound]
Task for the reader: rank each entry by its MIC, from the minimum upward. The labels, placed in the requested order, form the answer.
A, E, B, C, D

---

C. neoformans ATCC 66031: recorded MIC for assorted compounds
observation.type: MIC (µg/mL)

For orientation, consider the following solved cases.
# compound, assayed.target, observation.type, readout.unit, test.result
data = [
    ("CCCC(Br)C(=O)O (stereo not shown) [2-Bromovaleric acid, reference compound]", "C. neoformans ATCC 66031", "MIC", "µg/mL", 290),
    ("[N-]=[N+]=NC(Cn1cncn1)(Cn1cncn1)c1ccc(F)cc1F", "C. neoformans ATCC 66031", "MIC", "µg/mL", 19),
    ("Fc1ccc(C(Cl)(Cn2cncn2)Cn2cncn2)c(F)c1", "C. neoformans ATCC 66031", "MIC", "µg/mL", 28),
    ("Fc1ccc(C(Br)(Cn2cncn2)Cn2cncn2)c(F)c1", "C. neoformans ATCC 66031", "MIC", "µg/mL", 22),
    ("Fc1ccc(C(I)(Cn2cncn2)Cn2cncn2)c(F)c1", "C. neoformans ATCC 66031", "MIC", "µg/mL", 47),
]

[1] O=C(O)CCCCCCCCCCBr [11-Bromoundecanoic acid, reference compound]
[2] CCCCCCCCCCCCC(Br)C(=O)O (stereo not shown) [2-Bromomyristic acid, reference compound]
Record comparison, field MIC: mark the lower of 1 and 2 . Give the label under which the chosen entry appears.
2

---

# Tested on: C. albicans ATCC 14053
# assay: MIC microdilution susceptibility testing, C. albicans in RPMI
# Assay type: cell-based, Candida albicans
# condition.notes: Candida albicans, ATCC14053; RPMI medium pH 6.9, 35-37° C., 24-48 h, average of three experiments; read-out: MIC C. albicans ATCC 14053, RPMI
observation.type: MIC (µg/mL)

For orientation, consider the following solved cases.
# molecule, readout.unit, MIC
measured = [
    ("Fc1ccc(C(Br)(Cn2cncn2)Cn2cncn2)c(F)c1", "µg/mL", 701),
    ("CCCCCCCCCCCCC(Br)C(=O)O (stereo not drawn) [2-Bromomyristic acid, reference compound]", "µg/mL", 12),
    ("Fc1ccc(C(I)(Cn2cncn2)Cn2cncn2)c(F)c1", "µg/mL", 749),
    ("CCCCCCC(Br)C(=O)O (stereo not drawn) [2-Bromooctanoic acid, reference compound]", "µg/mL", 865),
]

[a] O=C(O)CCCCCCCCCCBr [11-Bromoundecanoic acid, reference compound]
[b] CCCCCCCCCCC(Br)C(=O)O (stereo not drawn) [2-Bromolauric acid, reference compound]
[c] CS(=O)(=O)C(Cn1cncn1)(Cn1cncn1)c1ccc(F)cc1F
[d] OC(Cn1cncn1)(Cn1cncn1)c1ccc(F)cc1F [FLC, reference compound]
Task for the reader: rank each entry by its MIC, from the minimum upward. The labels, placed in the requested order, form the answer.
d, b, a, c
(d: 2.3 µg/mL, b: 155 µg/mL, a: 371 µg/mL, c: 645 µg/mL)
